Target: T1, DcR3 (UniProt O95407 30-300, limits assumed)
T1 construct: the construct is not described; also called decoy receptor DcR3; TNFRSF6B
T1 sequence (looked up): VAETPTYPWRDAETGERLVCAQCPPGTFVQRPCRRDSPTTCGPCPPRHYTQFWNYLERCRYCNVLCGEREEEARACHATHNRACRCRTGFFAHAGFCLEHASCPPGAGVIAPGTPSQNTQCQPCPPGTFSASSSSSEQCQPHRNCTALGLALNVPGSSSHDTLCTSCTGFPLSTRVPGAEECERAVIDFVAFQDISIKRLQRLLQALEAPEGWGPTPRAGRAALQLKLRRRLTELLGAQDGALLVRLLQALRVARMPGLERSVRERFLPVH
Assay: ELISA, DcR3
Some binders, each annotated with its measured EC50.
Measure: EC50 (nM)

Binder: TL1W31 (GD: Single chain MMB in CBIS; His-TEV-hTL1A 72-251 R103Q) (ligand, also called TL1W31 (R103Q)) HHHHHHENLYFQGLKGQEFAPSHQQVYAPLRADGDKPRAHLTVVQQTPTQHFKNQFPALHWEHELGLAFTKNRMNYTNKFLLIPESGDYFIYSQVTFRGMTSECSEIRQAGRPNKPDSITVVITKVTDSYPEPTQLLMGTKSVCEVGSNWFQPIYLGAMFSLQEGDKLMVNVSDISLVDYTKEDKTFFGAFLL
Reading unit: nM
Reported measurement: 2.5
--
Binder: TL1W80 (His-TEV-TL1A K111A) (ligand, also called TL1W80 (K111A)) HHHHHHENLYFQGLKGQEFAPSHQQVYAPLRADGDKPRAHLTVVRQTPTQHFANQFPALHWEHELGLAFTKNRMNYTNKFLLIPESGDYFIYSQVTFRGMTSECSEIRQAGRPNKPDSITVVITKVTDSYPEPTQLLMGTKSVCEVGSNWFQPIYLGAMFSLQEGDKLMVNVSDISLVDYTKEDKTFFGAFLL
Reading unit: nM
Reported measurement: 16.3
--
Binder: TL1W24 (His-TEV-hTL1A 72-251 F209A) (ligand, also called TL1W24 (F209A)) HHHHHHENLYFQGLKGQEFAPSHQQVYAPLRADGDKPRAHLTVVRQTPTQHFKNQFPALHWEHELGLAFTKNRMNYTNKFLLIPESGDYFIYSQVTFRGMTSECSEIRQAGRPNKPDSITVVITKVTDSYPEPTQLLMGTKSVCEVGSNWAQPIYLGAMFSLQEGDKLMVNVSDISLVDYTKEDKTFFGAFLL
Reading unit: nM
Reported measurement: 30.7
